Target: UniProt:Q72547
Test: Inhibition of RNase H activity of full length recombinant HIV1 reverse transcriptase assessed as reduction in nonspecific internal cleavage using HTS1 substrate
Conditions: read-out: IC50
Parameter measured: pIC50
Kindly note that pIC50 refers to -log10 of the concentration in mol/L and answer with the value alone.

Some compounds with recorded pIC50:
INSERT INTO measurements (smiles_input, system, number) VALUES
  ('Cn1c(Oc2ccc(-c3ccc(O)cc3)cc2)cc(=O)n(O)c1=O', 'UniProt:Q72547', 5.66),
  ('COc1cccc(-c2ccc(Nc3cc(=O)n(O)c(=O)n3C)cc2)c1', 'UniProt:Q72547', 6.10),
  ('Cn1c(Nc2cccc(-c3ccc(O)cc3)c2)cc(=O)n(O)c1=O', 'UniProt:Q72547', 6.12),
  ('COc1cccc(OC)c1-c1cccc(Nc2cc(=O)n(O)c(=O)n2C)c1', 'UniProt:Q72547', 5.72),
  ('O=c1cc(Nc2cccc(-c3ccc(F)cc3)c2)[nH]c(=O)n1O', 'UniProt:Q72547', 6.70);

Supply pIC50 value. Item: Cn1c(Nc2cccc(-c3cncnc3)c2)cc(=O)n(O)c1=O
5.85

Item COc1cccc(OC)c1-c1cccc(Nc2cc(=O)n(O)c(=O)[nH]2)c1 : provide pIC50
6.29

State its pIC50: Cn1c(Oc2ccccc2-c2ccc(Cl)cc2)cc(=O)n(O)c1=O
5.48

Determine from records and report pIC50 for Cn1c(Oc2ccc(-c3ccccc3)cc2)cc(=O)n(O)c1=O
5.72

Kindly indicate its recorded pIC50. Item: O=c1cc(Nc2ccc(-c3ccc(Cl)cc3)cc2)[nH]c(=O)n1O
6.33

Please report pIC50 for the following compound: Cc1ccc(-c2cccc(Nc3cc(=O)n(O)c(=O)n3C)c2)cc1
5.77

Identify the reported pIC50 for the following entry. Cn1c(Oc2ccccc2-c2ccccc2O)cc(=O)n(O)c1=O
4.96

Quote pIC50 reported for COc1ccc(-c2cccc(Oc3cc(=O)n(O)c(=O)n3C)c2)cc1 please.
6.40
